Just for reference, patent US10183010B2 is where these values come from.

# study_system: BRD4(1) protein (Homo sapiens, UniProt O60885)
# Construct: BRD4(1) protein, 500 nM; inferred from the use of nickel acceptor beads
# assay_overview: TSA assay: thermodynamic stability of BRD4(1)
# Type: binding
# condition_context: SYPRO Orange, 30° C. to 80° C.
Where TSA ΔTm equals or exceeds 3 °C, the correct label is true; where it does not, the label is false.

Example cases with answers are listed next.
{"columns": ["compound_string", "label_value"],
 "data": [
  ["CCN1C(=O)c2cccc3c(NS(=O)(=O)c4ccc(C(F)(F)F)cc4)ccc1c23", "true"],
  ["CCN1C(=O)c2cccc3c(NC(=O)c4ccc(Cl)cc4)ccc1c23", "false"],
  ["O=C1Nc2ccc(S(=O)(=O)NC3CCCCC3)c3cccc1c23", "false"],
  ["CCN1C(=O)c2cccc3c(NC(=O)CCc4ccccc4)ccc1c23", "false"],
  ["CCN1C(=O)c2cccc3c(S(=O)(=O)NC4CNC4)ccc1c23", "false"],
  ["CCN1C(=O)c2cccc3c(NS(=O)(=O)c4ccc([N+](=O)[O-])cc4)ccc1c23", "true"],
  ["CCN1C(=O)c2cccc3c(NC(=O)Cc4ccc(OC)c(OC)c4)ccc1c23", "true"],
  ["CCN1C(=O)c2cccc3c(NS(=O)(=O)c4ccccc4C(=O)O)ccc1c23", "true"],
  ["CCN1C(=O)c2cccc3c(S(=O)(=O)Nc4ccccc4)ccc1c23", "true"],
  ["CCN1C(=O)c2cccc3c(NS(=O)(=O)Cc4ccc(C(=O)O)cc4)ccc1c23", "false"]
]}

Hi team, for `CCN1C(=O)c2cccc3c(S(=O)(=O)NC4CCOCC4)ccc1c23` , is the recorded TSA ΔTm at or above 3 °C?
true

For `CCN1C(=O)c2cccc3c(S(=O)(=O)NC4CCN(C)CC4)ccc1c23` then?
false

For `CCCCNS(=O)(=O)c1ccc2c3c(cccc13)C(=O)N2` then?
false
